procedure summary: Long-term stability in feeds at room temperature (25° C.±2° C., RH 60%±10%; HPLC)
Type: physicochemical
condition description: 100 ppm in INSIGHTER's broiler feed; Day 30
property: Residual amount of active ingredient (%)

- molecule: "CC(=O)OC1=C(CCC(C)C)C(=O)C(CCC(C)C)(CCC(C)C)C(O)=C1C(=O)C(C)C [hexahydro-colupulone mono-acetate, Hexahydro-Colupulone Mono-Acetate]"
  value unit: "%"
  Residual amount of active ingredient: 72.30
- molecule: "CCCCCCCCCCCC(=O)OC1=C(CCC(C)C)C(=O)C(CCC(C)C)(CCC(C)C)C(O)=C1C(=O)C(C)C [hexahydro-colupulone mono-laurate]"
  value unit: "%"
  Residual amount of active ingredient: 99.68
- molecule: "CCC(=O)OC1=C(CCC(C)C)C(=O)C(CCC(C)C)(CCC(C)C)C(O)=C1C(=O)C(C)C [hexahydro-colupulone mono-propionate]"
  value unit: "%"
  Residual amount of active ingredient: 99.19
- molecule: "CCCC(=O)OC1=C(CCC(C)C)C(=O)C(CCC(C)C)(CCC(C)C)C(O)=C1C(=O)C(C)C [hexahydro-colupulone mono-butyrate]"
  value unit: "%"
  Residual amount of active ingredient: 98.39

The measured values listed here are drawn from patent US12673915B2.
